tested on: MC3T3-E1; assay: Induction of cells differentiation in mouse MC3T3-E1 cells assessed as increase in mineralization after 14 days by Alizarin Red S staining; format: functional, cell-based
Reported Metric: Activity

OC[C@H]1O[C@H](Oc2ccc3cc2Oc2ccc(cc2)CC[C@@H](O)CCCC3)[C@H](O)[C@@H](O)[C@@H]1O [ACEROSIDE I] :: Dose-dependent effect
Oc1ccc2cc1Oc1ccc(cc1)CCCC[C@@H](O)CC2 :: Dose-dependent effect
OC[C@H]1O[C@@H](Oc2ccc3cc2Oc2ccc(cc2)CCCC[C@@H](O)CC3)[C@H](O)[C@@H](O)[C@@H]1O [ACEROSIDE B1] :: Dose-dependent effect
Oc1ccc2cc1Oc1ccc(cc1)CC[C@H](O)CCCC2 :: Dose-dependent effect
